- Test system: A549 (lung cancer) cell line
- test description: MTT cytotoxicity assay, A549
- condition label: read-out: IC50 A549; MTT, 48 h drug treatment, A549

# compound structure string, IC50, µM
measured = [
    ("Cc1nc2ccccc2c(=O)n1-c1ccc(S(=O)(=O)c2ccc(-n3c(C)nc4ccccc4c3=O)cc2)cc1", 4.58),
    ("Cc1nc2ccc(Cl)cc2c(=O)n1Cc1ccc(Cn2c(C)nc3ccc(Cl)cc3c2=O)cc1", 6.07),
    ("Cc1nc2ccc(F)cc2c(=O)n1[C@H]1CC[C@H](n2c(C)nc3ccc(F)cc3c2=O)CC1", 8.11),
    ("Cc1nc2ccc([N+](=O)[O-])cc2c(=O)n1Cc1ccc(Cn2c(C)nc3ccc([N+](=O)[O-])cc3c2=O)cc1", 2.98),
    ("Cc1nc2ccc([N+](=O)[O-])cc2c(=O)n1[C@H]1CC[C@H](n2c(C)nc3ccc([N+](=O)[O-])cc3c2=O)CC1", 5.34),
    ("Cc1nc2ccc(Cl)cc2c(=O)n1CCn1c(C)nc2ccc(Cl)cc2c1=O", 7.98),
    ("Cc1nc2ccccc2c(=O)n1-c1cccc(-n2c(C)nc3ccccc3c2=O)c1", 5.94),
    ("Cc1ccc2nc(C)n(-c3ccc(-n4c(C)nc5ccc(C)cc5c4=O)cc3)c(=O)c2c1", 8.13),
    ("Cc1nc2ccc([N+](=O)[O-])cc2c(=O)n1-c1ccc(S(=O)(=O)c2ccc(-n3c(C)nc4ccc([N+](=O)[O-])cc4c3=O)cc2)cc1", 2.75),
    ("Cc1nc2ccc(Cl)cc2c(=O)n1-c1ccc(-n2c(C)nc3ccc(Cl)cc3c2=O)cc1", 5.15),
    ("Cc1nc2ccc(F)cc2c(=O)n1Cc1ccc(Cn2c(C)nc3ccc(F)cc3c2=O)cc1", 5.55),
    ("Cc1nc2ccc(F)cc2c(=O)n1-c1ccc(S(=O)(=O)c2ccc(-n3c(C)nc4ccc(F)cc4c3=O)cc2)cc1", 3.45),
    ("Cc1nc2ccc([N+](=O)[O-])cc2c(=O)n1-c1ccc(-n2c(C)nc3ccc([N+](=O)[O-])cc3c2=O)cc1", 3.43),
    ("Cc1nc2ccccc2c(=O)n1-c1ccc(-n2c(C)nc3ccccc3c2=O)cc1", 8.41),
    ("Cc1ccc2nc(C)n(-c3ccc(S(=O)(=O)c4ccc(-n5c(C)nc6ccc(C)cc6c5=O)cc4)cc3)c(=O)c2c1", 5.77),
]
